TARGET_UNDER_TEST: Serotonin 3 (5-HT3) receptor (Rattus norvegicus, UniProt P35563+Q9JJ16)
Sequence (P35563 whole entry): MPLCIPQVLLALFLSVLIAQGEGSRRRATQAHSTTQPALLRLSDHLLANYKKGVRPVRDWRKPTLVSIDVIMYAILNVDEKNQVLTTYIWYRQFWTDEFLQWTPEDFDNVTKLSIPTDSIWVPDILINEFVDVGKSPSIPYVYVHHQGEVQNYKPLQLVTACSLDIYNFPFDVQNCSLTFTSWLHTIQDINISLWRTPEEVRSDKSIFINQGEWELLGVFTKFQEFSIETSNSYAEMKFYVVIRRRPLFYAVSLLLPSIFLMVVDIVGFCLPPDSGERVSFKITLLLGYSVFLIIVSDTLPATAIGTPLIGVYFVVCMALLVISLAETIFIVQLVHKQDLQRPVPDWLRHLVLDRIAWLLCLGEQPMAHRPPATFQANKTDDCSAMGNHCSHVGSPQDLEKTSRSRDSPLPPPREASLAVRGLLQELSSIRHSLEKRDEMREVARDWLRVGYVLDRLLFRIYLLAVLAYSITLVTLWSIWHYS
Sequence (Q9JJ16 whole entry): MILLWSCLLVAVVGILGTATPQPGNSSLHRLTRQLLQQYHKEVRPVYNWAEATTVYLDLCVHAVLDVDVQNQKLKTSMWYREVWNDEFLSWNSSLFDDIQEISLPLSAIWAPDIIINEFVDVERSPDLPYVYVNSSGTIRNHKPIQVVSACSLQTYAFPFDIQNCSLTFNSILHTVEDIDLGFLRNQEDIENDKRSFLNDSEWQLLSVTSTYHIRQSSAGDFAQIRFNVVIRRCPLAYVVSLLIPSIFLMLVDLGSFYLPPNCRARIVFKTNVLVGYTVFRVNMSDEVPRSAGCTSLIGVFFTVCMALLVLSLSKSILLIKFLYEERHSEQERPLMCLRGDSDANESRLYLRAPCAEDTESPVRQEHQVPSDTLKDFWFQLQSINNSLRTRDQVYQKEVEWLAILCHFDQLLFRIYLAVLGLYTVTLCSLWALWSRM
TEST: Compound was evaluated for the displacement of [3H]-Q-ICS 205-930 binding to 5-hydroxytryptamine 3 receptor in rat brain membranes
Type: cell membranes
READOUT_LABEL: IC50 (nM)
Just the number please, in nM, no unit attached.

{"COMPOUND": "Cc1[nH]c2ccc(O)cc2c1CCN", "IC50 (nM)": 646}

Proceed to the following item.
IC50 reading for CN1[C@@H]2CC[C@H]1C[C@@H](OC(=O)c1cc(Cl)cc(Cl)c1)C2 [BEMESETRON] : 21.9

The reported measurements were obtained from ChEMBL document CHEMBL1125715.
